# Tested on: 991263-137-R1-J2-PDC complex spheroid viability
# assay: Anticancer human tumor 991263-137-R1-J2-PDC patient-derived colon adenocarcinoma cell line growth inhibition [POLQ]
# test settings: second compound 0.316 µM; first compound 0.1 µM; stronger effect = lower value
Can you tell me viability, T/C for the items I'm about to list?
Unit % implied. Number only.

Query: Name the recorded viability, T/C for O=c1[nH]cc(F)c(=O)[nH]1 + Nc1ccc(C#CCN(C(=O)Cc2ncc(C(F)(F)F)cc2C(F)(F)F)c2ccc(F)cc2)nn1 .
Reply: 104

Query: GET /values?readout=viability, T/C&item= CC1COCCN1c1cc(C2(S(C)(=N)=O)CC2)nc(-c2ccnc3[nH]ccc23)n1 (stereo not drawn) + Cc1cccc(N(C)C(=O)C2C(O)CCN2c2nc(C)cc(C(F)(F)F)c2C#N)c1
Reply: 108

Query: Give its viability, T/C value. Item: C#Cc1c(F)ccc2cc(O)cc(-c3ncc4c(N5CC6CCC(C5)N6)nc(OCC56CCCN5CC(F)C6)nc4c3F)c12 (stereo not drawn) + Cc1cccc(N(C)C(=O)C2C(O)CCN2c2nc(C)cc(C(F)(F)F)c2C#N)c1
Reply: 106

Query: For the compound shown here, C#Cc1c(F)ccc2cc(O)cc(-c3ncc4c(N5CC6CCC(C5)N6)nc(OCC56CCCN5CC(F)C6)nc4c3F)c12 (stereo not drawn) + COC1C(OC(N)=O)C(O)C(Oc2ccc3c(O)c(NC(=O)c4ccc(O)c(CC=C(C)C)c4)c(=O)oc3c2C)OC1(C)C , give the reported viability, T/C.
Reply: 120

Query: // returns reported viability, T/C for input COc1ccc([C@@H](O)c2cc(-c3ncnc4cc(N5CCOCC5)ccc34)c(F)cc2Cl)nn1 + COC1C(OC(N)=O)C(O)C(Oc2ccc3c(O)c(NC(=O)c4ccc(O)c(CC=C(C)C)c4)c(=O)oc3c2C)OC1(C)C
Reply: 107

Query: What value of viability, T/C has been recorded for this entry: CC1COCCN1c1cc(-c2ccnn2C)c2ccnc(-c3ccn[nH]3)c2n1 (stereo not drawn) + Cc1cccc(N(C)C(=O)C2C(O)CCN2c2nc(C)cc(C(F)(F)F)c2C#N)c1
Reply: 110

Query: Please look up its viability, T/C: CCCS(=O)(=O)Nc1ccc(F)c(C(=O)c2c[nH]c3ncc(-c4ccc(Cl)cc4)cc23)c1F + Nc1ccc(C#CCN(C(=O)Cc2ncc(C(F)(F)F)cc2C(F)(F)F)c2ccc(F)cc2)nn1
Reply: 114

Query: Any idea what its viability, T/C is? The compound is C=CC(=O)N1CCN(c2nc(=O)n(-c3c(C)ccnc3C(C)C)c3nc(-c4c(O)cccc4F)c(F)cc23)C(C)C1 (stereo not drawn) + Cc1cccc(N(C)C(=O)C2C(O)CCN2c2nc(C)cc(C(F)(F)F)c2C#N)c1
Reply: 107

Query: Item COc1cc(C2c3cc4c(cc3C(OC3OC5COC(C)OC5C(O)C3O)C3COC(=O)C23)OCO4)cc(OC)c1O (stereo not drawn) + COC1C(OC(N)=O)C(O)C(Oc2ccc3c(O)c(NC(=O)c4ccc(O)c(CC=C(C)C)c4)c(=O)oc3c2C)OC1(C)C has what recorded viability, T/C?
Reply: 104

Query: Looking for the measured viability, T/C of COc1ccc([C@@H](O)c2cc(-c3ncnc4cc(N5CCOCC5)ccc34)c(F)cc2Cl)nn1 + Cc1cccc(N(C)C(=O)C2C(O)CCN2c2nc(C)cc(C(F)(F)F)c2C#N)c1 , can you help?
Reply: 103

Query: Could you share which viability, T/C value was measured for O=C(Nc1ccc(O)c(NS(=O)(=O)c2ccc(F)cc2)c1)c1ccc(-c2ccccc2)cc1 + COC1C(OC(N)=O)C(O)C(Oc2ccc3c(O)c(NC(=O)c4ccc(O)c(CC=C(C)C)c4)c(=O)oc3c2C)OC1(C)C ?
Reply: 112

Query: GET /values?readout=viability, T/C&item= COc1cccc2c1C(=O)c1c(O)c3c(c(O)c1C2=O)CC(O)(C(=O)CO)CC3OC1CC(N)C(O)C(C)O1 (stereo not drawn) + COC1C(OC(N)=O)C(O)C(Oc2ccc3c(O)c(NC(=O)c4ccc(O)c(CC=C(C)C)c4)c(=O)oc3c2C)OC1(C)C
Reply: 116

Query: Data request, read-out viability, T/C, for C=CCn1c(=O)c2cnc(Nc3ccc(N4CCN(C)CC4)cc3)nc2n1-c1cccc(C(C)(C)O)n1 + Nc1ccc(C#CCN(C(=O)Cc2ncc(C(F)(F)F)cc2C(F)(F)F)c2ccc(F)cc2)nn1
Reply: 96.3

---

# Tested on: 991263-137-R1-J2-PDC complex spheroid viability
# assay: Anticancer human tumor 991263-137-R1-J2-PDC cell line growth inhibition [POLQ];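 also: spheroids exposed to compounds for 7 days before readout; 100% = DMSO vehicle control viability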
# test settings: second compound 10 µM; first compound 1 µM; stronger effect = lower value
Kindly supply the reported viability, T/C values for the records listed here.
Entry rule: numbers only, all in %.

Query: Record lookup: for 991263-137-R1-J2-PDC complex spheroid viability, what viability, T/C belongs to COc1ccc([C@@H](O)c2cc(-c3ncnc4cc(N5CCOCC5)ccc34)c(F)cc2Cl)nn1 + Cc1cccc(N(C)C(=O)C2C(O)CCN2c2nc(C)cc(C(F)(F)F)c2C#N)c1 ?
Reply: 90.5

Query: Identify the measured viability, T/C of COc1cc(C2c3cc4c(cc3C(OC3OC5COC(C)OC5C(O)C3O)C3COC(=O)C23)OCO4)cc(OC)c1O (centres undefined) + COC1C(OC(N)=O)C(O)C(Oc2ccc3c(O)c(NC(=O)c4ccc(O)c(CC=C(C)C)c4)c(=O)oc3c2C)OC1(C)C for 991263-137-R1-J2-PDC complex spheroid viability.
Reply: 91.2

Query: Hi! What's the reported viability, T/C for Nc1ccn(C2OC(CO)C(O)C2(F)F)c(=O)n1 (centres undefined) + Nc1ccc(C#CCN(C(=O)Cc2ncc(C(F)(F)F)cc2C(F)(F)F)c2ccc(F)cc2)nn1 on 991263-137-R1-J2-PDC complex spheroid viability?
Reply: 69.5

Query: What reported viability, T/C corresponds to CCc1cc2c(N3CCc4c(cc(Cn5ccnc5)cc4-c4cn(C)nc4C(F)(F)F)C3=O)ccnc2c(OC)n1 + Nc1ccc(C#CCN(C(=O)Cc2ncc(C(F)(F)F)cc2C(F)(F)F)c2ccc(F)cc2)nn1 on 991263-137-R1-J2-PDC complex spheroid viability?
Reply: 89.8

Query: Missing value: viability, T/C, 991263-137-R1-J2-PDC complex spheroid viability, entry C=CC(=O)N1CCN(c2nc(=O)n(-c3c(C)ccnc3C(C)C)c3nc(-c4c(O)cccc4F)c(F)cc23)C(C)C1 (centres undefined) + Nc1ccc(C#CCN(C(=O)Cc2ncc(C(F)(F)F)cc2C(F)(F)F)c2ccc(F)cc2)nn1 . Fill in?
Reply: 117

Query: Hi! What's the reported viability, T/C for CC(C)n1c(=O)n(C)c2cnc3cc(F)c(-c4ccc(OCCCN5CCCCC5)nc4)cc3c21 + Nc1ccc(C#CCN(C(=O)Cc2ncc(C(F)(F)F)cc2C(F)(F)F)c2ccc(F)cc2)nn1 on 991263-137-R1-J2-PDC complex spheroid viability?
Reply: 94.5

Query: Query the reported viability, T/C for 991263-137-R1-J2-PDC complex spheroid viability; item: CC1COCCN1c1cc(-c2ccnn2C)c2ccnc(-c3ccn[nH]3)c2n1 (centres undefined) + Nc1ccc(C#CCN(C(=O)Cc2ncc(C(F)(F)F)cc2C(F)(F)F)c2ccc(F)cc2)nn1
Reply: 46.2

Query: Enter reported viability, T/C observed with 991263-137-R1-J2-PDC complex spheroid viability for CNCc1ccc(-c2[nH]c3cc(F)cc4c3c2CCNC4=O)cc1 + Cc1cccc(N(C)C(=O)C2C(O)CCN2c2nc(C)cc(C(F)(F)F)c2C#N)c1
Reply: 114

Query: Report viability, T/C for O=C(Nc1ccc(O)c(NS(=O)(=O)c2ccc(F)cc2)c1)c1ccc(-c2ccccc2)cc1 + Cc1cccc(N(C)C(=O)C2C(O)CCN2c2nc(C)cc(C(F)(F)F)c2C#N)c1 tested on 991263-137-R1-J2-PDC complex spheroid viability.
Reply: 96.8

Query: Enter reported viability, T/C observed with 991263-137-R1-J2-PDC complex spheroid viability for C=CC(=O)N1CCN(c2nc(=O)n(-c3c(C)ccnc3C(C)C)c3nc(-c4c(O)cccc4F)c(F)cc23)C(C)C1 (centres undefined) + COC1C(OC(N)=O)C(O)C(Oc2ccc3c(O)c(NC(=O)c4ccc(O)c(CC=C(C)C)c4)c(=O)oc3c2C)OC1(C)C
Reply: 109

Query: Request body: readout viability, T/C, system 991263-137-R1-J2-PDC complex spheroid viability, query CC1COCCN1c1cc(C2(O)CC3CCC(C2)O3)c2cnn(-c3ccn[nH]3)c2n1 (centres undefined) + Nc1ccc(C#CCN(C(=O)Cc2ncc(C(F)(F)F)cc2C(F)(F)F)c2ccc(F)cc2)nn1 . Return the value.
Reply: 45.7

Query: For the record COc1ccc([C@@H](O)c2cc(-c3ncnc4cc(N5CCOCC5)ccc34)c(F)cc2Cl)nn1 + COC1C(OC(N)=O)C(O)C(Oc2ccc3c(O)c(NC(=O)c4ccc(O)c(CC=C(C)C)c4)c(=O)oc3c2C)OC1(C)C , what value of viability, T/C is listed for 991263-137-R1-J2-PDC complex spheroid viability?
Reply: 111

Query: Param readout= viability, T/C; system= 991263-137-R1-J2-PDC complex spheroid viability; entry= C=CCn1c(=O)c2cnc(Nc3ccc(N4CCN(C)CC4)cc3)nc2n1-c1cccc(C(C)(C)O)n1 + Cc1cccc(N(C)C(=O)C2C(O)CCN2c2nc(C)cc(C(F)(F)F)c2C#N)c1 ; returns value.
Reply: 95.2

Query: Request - read-out viability, T/C | tested on 991263-137-R1-J2-PDC complex spheroid viability | compound COc1cc2cc(C(=O)CCC(=O)O)sc2cc1OC + Cc1cccc(N(C)C(=O)C2C(O)CCN2c2nc(C)cc(C(F)(F)F)c2C#N)c1
Reply: 101
